# testedSystem: Ubiquitin carboxyl-terminal hydrolase isozyme L5 (Homo sapiens)
# procedureDetails: inhibitors of human UCH37 deubiquitinase, primary screen, biochemical, Ub-AMC cleavage, fluorescence (AID 588478)
# experimentalContext: purified proteasome/UCH37, Ub-AMC cleavage fluorescence; concentration not given here
Screen size: about 330,000 compounds; about 1,100 (0.33%) were called active.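 How the source made its calls: active means mean inhibition over replicate wells above about 20% (limit read from the data); inactive means the rest.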 This is one part of a sample in which actives are shown more often than they occur.
Write down the outcome that applies. Available outcomes: active, inactive

Worked examples follow.
compound="Nc1c(Cl)cc(-c2csc(N3CCCC3c3nc4cc(Cl)c(Cl)cc4n3CCOCCO)n2)cc1Cl (stereo unspecified)" testedsystem="Ubiquitin carboxyl-terminal hydrolase isozyme L5 (Homo sapiens)" labelclass=active
compound=CCOC(=O)N1CCN(C(=O)Cc2ccc(-n3c(=S)[nH]c4ccccc4c3=O)cc2)CC1 testedsystem="Ubiquitin carboxyl-terminal hydrolase isozyme L5 (Homo sapiens)" labelclass=inactive
compound="COc1cccc(C=NNC(=S)NC2CC3CCC2C3)c1OC (stereo unspecified)" testedsystem="Ubiquitin carboxyl-terminal hydrolase isozyme L5 (Homo sapiens)" labelclass=inactive
compound=Cc1ccc(C=NNC(=O)c2cc([N+](=O)[O-])cc([N+](=O)[O-])c2)o1 testedsystem="Ubiquitin carboxyl-terminal hydrolase isozyme L5 (Homo sapiens)" labelclass=inactive
compound="CCCn1c(C2CCCN2c2nc(-c3ccc(C)cc3)cs2)nc2cc(Cl)c(N3CCCCC3)cc21 (stereo unspecified)" testedsystem="Ubiquitin carboxyl-terminal hydrolase isozyme L5 (Homo sapiens)" labelclass=inactive

Recorded test outcome, item `COc1ccc(C(C)=NNC(=O)CN(c2ccc(OC)cc2)S(=O)(=O)c2ccccc2)cc1`
inactive

Recorded test outcome, item `CCOC(=O)c1c(C)[nH]c2c1-c1ccccc1C(=O)C2=O`
active

Recorded test outcome, item Cc1cc(N2C(=O)C(=O)/C(=C(/O)c3ccc(Cl)cc3)C2c2cccc(Br)c2)no1 (stereo unspecified)
inactive

Recorded test outcome, item `CON=C(C(=O)N[C@@H]1C(=O)N2C(C(=O)O)=C(COC(N)=O)CS[C@H]12)c1ccco1`
inactive

Recorded test outcome, item COc1ccc(C2/C(=C(/O)c3ccccc3)C(=O)C(=O)N2c2ncccn2)cc1OC (stereo unspecified)
inactive

---

# testedSystem: Ubiquitin carboxyl-terminal hydrolase isozyme L5 (Homo sapiens)
# procedureDetails: inhibitors of human UCH37 deubiquitinase, primary screen, biochemical, Ub-AMC cleavage, fluorescence (AID 588478)
# experimentalContext: purified proteasome/UCH37, Ub-AMC cleavage fluorescence; concentration not given here
The campaign covered roughly 330,000 compounds. About 1,100 (0.33%) were called active.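 The calls were made as follows: active = mean inhibition over replicate wells above about 20% (limit read from the data); inactive = the rest.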 The sample as a whole holds a higher share of actives than the screen did.
Write down the outcome that applies. Available outcomes: TRUE = active, FALSE = inactive

Worked examples follow.
compound=O=C(/C=C/c1ccc(N2CCOCC2)cc1)c1ccccc1 labelclass=FALSE
compound=O=C(O)c1cc(C(=O)O)cc(-c2ccc(C=c3sc4nc5ccccc5n4c3=O)o2)c1 labelclass=TRUE
compound="CCC1SC(C)CC(=NNC(N)=O)C1C (stereo not drawn)" labelclass=FALSE
compound=COC(=O)[C@H](Cc1ccccc1)NC(=O)[C@@H]1C[C@H]1[C@@H](NC(=O)OCc1ccccc1)c1ccccc1 labelclass=FALSE
compound=COC(=O)[C@H](C)[C@H]1C[C@]1(C)[C@H](NC(=O)OCc1ccccc1)c1ccccc1 labelclass=TRUE

Recorded test outcome, item `Oc1ccc(N=Nc2nccs2)c(O)c1`
TRUE

Recorded test outcome, item CC(C)(C)c1ccc(OCc2ccc(C(=O)NN=C3CC4CC=CC34)cc2)cc1 (stereo not drawn)
FALSE

Recorded test outcome, item Cc1cc(=O)n2nc(N3CCCC(C(=O)NCCC4=CCCCC4)C3)sc2n1 (stereo not drawn)
FALSE

Recorded test outcome, item `COc1ccc(C(=O)OCC(=O)Nc2ccc3[nH]c(=O)[nH]c3c2)c(OC)c1OC`
FALSE

Recorded test outcome, item `COc1ccc(NC(=O)ON=Cc2ccccc2)cc1`
FALSE

Recorded test outcome, item `CCOc1cc(C=NNC(=O)C(N)=O)cc(Br)c1O`
FALSE

Recorded test outcome, item `COC(=O)c1ccc(C=NNC(=O)CNc2cccc(C)c2)cc1`
FALSE

Recorded test outcome, item `CON=CCc1oc(=O)c(NC(=O)c2ccccc2)cc1C(=O)OC`
FALSE

Recorded test outcome, item `O=C1Nc2ccc([N+](=O)[O-])cc2C1=Nc1cccc(CO)c1`
TRUE
